Recorded logD values for a group of compounds are listed next.
Assay: Lipophilicity, logD of the compound at pH 7.4
Type: physicochemical
Conditions: buffer
# output: bare number, no unit

Please review the following examples before continuing.
compound_structure_string=C=CC(=O)N1CC(n2nc(C#Cc3cc(OC)cc(OC)c3)c3c(N)ncnc32)C1 number=3
compound_structure_string=COc1cc(C#Cc2nn(C3CN(C(=O)/C=C/CN(C)C)C3)c3ncnc(N)c23)cc(OC)c1 number=2.3

// switching to the query compound
Field logD (entry C=CC(=O)N1CC[C@H](n2nc(C#Cc3cc(OC)cc(OC)c3)c3c(N)ncnc32)C1 ) reads 3.4

---

For reference, IC50 measured on Fibroblast growth factor receptor 2 (Homo sapiens):
Provide only the numeric value, understood in nM.

compound_structure_string=C=CC(=O)N1CC[C@H](n2nc(CCc3cc(OC)cc(OC)c3)c3c(N)ncnc32)C1 endpoint_name=IC50 number=239
compound_structure_string=C=CC(=O)N1CC[C@@H](n2nc(-c3cnc4ccccc4c3)c3c(N)ncnc32)C1 endpoint_name=IC50 number=2260
compound_structure_string=C=CC(=O)N1CC[C@H](n2cc(-c3cnc4ccccc4c3)c3c(N)ncnc32)C1 endpoint_name=IC50 number=17
compound_structure_string=C=CC(=O)N1CC[C@@H](n2cc(-c3cnc4ccccc4c3)c3c(N)ncnc32)C1 endpoint_name=IC50 number=313

Now for another entry.
For reference, reported IC50 for C=CC(=O)N1CC[C@H](n2nc(-c3cnc4ccccc4c3)c3c(N)ncnc32)C1 stands at 255
